B1: EHBP1 CH (calponin homology) domain [human] / EHBP1 bMERB domain (bMERB_(1060-1212), full-length bMERB domain) [human] (parent complex)
chain 1: GRKPNASQSLLVWCKEVTKNYRGVKITNFTTSWRNGLSFCAILHHFRPDLIDYKSLNPQDIKENNKKAYDGFASIGISRLLEPSDMVLLAIPDKLTVMTYLYQIRAHFSGQ
chain 2: not shown

# Variants of: B1
# assay details: ITC
measured endpoint: Kd (µM)
Output spec: scalar in µM, unitless text.

Recorded Kd of chain 1 Y102A , please.
5.65

Data credit: paper PMC7442826
